Reported values of LDLR mRNA for individual entries
- Test system: SKMEL-28 cells
- method_description: RT-qPCR of LXR-responsive genes
- Type: cell-based, human
- measurement_context: SKMEL-28, siCT, 8 h; 2.5 µM DDA, 10 µM 22(R)HC, 1 µM GW, 100 nM TO; vs vehicle
readout_name: LDLR mRNA (fold)

INSERT INTO results (compound, measured_result) VALUES
  ('CC(C)CC[C@@H](O)[C@@H](C)[C@H]1CC[C@H]2[C@@H]3CC=C4C[C@@H](O)CC[C@]4(C)[C@H]3CC[C@]12C [22(R)HC, 22(R)-hydroxycholesterol]', 0.4),
  ('O=S(=O)(c1ccccc1)N(CC(F)(F)F)c1ccc(C(O)(C(F)(F)F)C(F)(F)F)cc1', 1.0),
  ('CC(C)CCC[C@@H](C)[C@H]1CC[C@H]2[C@@H]3C[C@@H](NCCc4cnc[nH]4)[C@@]4(O)C[C@@H](O)CC[C@]4(C)[C@H]3CC[C@]12C', 3.2),
  ('O=C(O)Cc1cccc(OCCCN(Cc2cccc(C(F)(F)F)c2Cl)CC(c2ccccc2)c2ccccc2)c1', 1.0);
